Taken from paper PMC4336329.

As shown below, each of these compounds has a reported hERG current change (%, negative = inhibition) at 10uM value.
Target: human ether-à-go-go-related gene (hERG) potassium channel (human);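 note: peak tail current of the secondary pulse compared with the same well before compound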
Sequence (Q12809 whole entry, looked up): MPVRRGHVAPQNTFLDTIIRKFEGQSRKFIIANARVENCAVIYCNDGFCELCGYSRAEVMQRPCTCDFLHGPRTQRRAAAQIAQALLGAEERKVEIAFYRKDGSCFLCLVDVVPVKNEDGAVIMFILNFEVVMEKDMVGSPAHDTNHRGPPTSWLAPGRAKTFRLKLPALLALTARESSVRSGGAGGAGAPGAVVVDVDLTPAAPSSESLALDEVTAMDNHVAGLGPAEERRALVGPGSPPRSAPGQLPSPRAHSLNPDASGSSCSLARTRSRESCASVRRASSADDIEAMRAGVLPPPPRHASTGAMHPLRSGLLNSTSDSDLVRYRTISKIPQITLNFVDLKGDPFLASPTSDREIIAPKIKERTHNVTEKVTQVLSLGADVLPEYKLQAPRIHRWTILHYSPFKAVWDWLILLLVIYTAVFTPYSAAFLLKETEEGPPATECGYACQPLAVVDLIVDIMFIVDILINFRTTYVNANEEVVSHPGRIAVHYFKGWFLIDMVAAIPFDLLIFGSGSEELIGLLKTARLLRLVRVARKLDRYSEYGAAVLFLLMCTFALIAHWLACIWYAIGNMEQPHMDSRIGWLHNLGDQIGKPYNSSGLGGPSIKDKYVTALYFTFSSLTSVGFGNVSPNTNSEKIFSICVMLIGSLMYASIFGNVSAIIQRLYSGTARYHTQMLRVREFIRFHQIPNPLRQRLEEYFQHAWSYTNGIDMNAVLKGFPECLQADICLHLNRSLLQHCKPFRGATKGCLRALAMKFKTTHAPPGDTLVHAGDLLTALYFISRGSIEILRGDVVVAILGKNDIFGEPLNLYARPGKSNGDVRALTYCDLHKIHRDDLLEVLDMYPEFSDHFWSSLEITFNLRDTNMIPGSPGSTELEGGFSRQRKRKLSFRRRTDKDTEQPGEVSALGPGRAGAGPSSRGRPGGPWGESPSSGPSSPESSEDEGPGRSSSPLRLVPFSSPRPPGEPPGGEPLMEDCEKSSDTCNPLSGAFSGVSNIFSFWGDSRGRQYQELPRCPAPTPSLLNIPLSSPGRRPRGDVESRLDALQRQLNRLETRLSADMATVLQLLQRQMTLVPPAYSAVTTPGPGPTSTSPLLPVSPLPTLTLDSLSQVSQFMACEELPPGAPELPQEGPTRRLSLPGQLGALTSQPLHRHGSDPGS
Experiment: primary screen, population patch clamp on CHO cells stably expressing hERG; higher = less effect of the substance
Description: Briefly, Chinese hamster ovary (CHO) cells stably expressing the hERG channel were dislodged from tissue culture flasks and dispensed into PPC plates. […] During the recording, background leak currents were estimated by a 100 ms step to -80 mV from an initial holding potential of -70 mV and subtracted from the subsequent current measurement. The campaign was conducted in two phases using slight differences in recording protocol. […]
Screen size: about 310,000 compounds; about 14,000 (4.5%) showed an effect of 50% or more. The effect is printed as a negative number. The entries come from a sample that favours strong results as a whole.
Answer format: numeric, % implied, no suffix.

C/C=C/C(=O)N1c2ccccc2C(C)=CC1(C)C    3.41

Lookup: State the recorded hERG current change (%, negative = inhibition) at 10uM for this entry: Fc1ccc(CSc2nnc(-c3cnccn3)n2Cc2ccco2)cc1
Found: -52.2

Lookup: State the recorded hERG current change (%, negative = inhibition) at 10uM for this entry: COc1ccc(/C=C/C(=O)NCCCc2ccccc2)cc1
Found: -46.8

Lookup: State the recorded hERG current change (%, negative = inhibition) at 10uM for this entry: O=c1[nH]c(CSc2nnc(-c3ccncc3)n2Cc2ccco2)nc2ccccc12
Found: -58.2

Lookup: State the recorded hERG current change (%, negative = inhibition) at 10uM for this entry: c1ccc(-c2nnc(SCc3nc4ccccc4[nH]3)n2Cc2ccco2)cc1
Found: -22.4

Lookup: State the recorded hERG current change (%, negative = inhibition) at 10uM for this entry: Cc1ccc(S(=O)(=O)NNC(=O)c2cnn(-c3ccccc3)c2-n2cccc2)cc1
Found: -15

Lookup: State the recorded hERG current change (%, negative = inhibition) at 10uM for this entry: COCCn1c(SCc2nc3ccccc3c(=O)[nH]2)nnc1-c1ccncc1
Found: -4.64

Lookup: State the recorded hERG current change (%, negative = inhibition) at 10uM for this entry: CCc1ccc(/C=c2\s/c(=C\C(=O)C(C)(C)C)[nH]c2=O)cc1
Found: 15.2

Lookup: State the recorded hERG current change (%, negative = inhibition) at 10uM for this entry: Cn1c(Cc2ccccc2)nnc1SCc1nc2ccccc2c(=O)[nH]1
Found: -1.69

Lookup: State the recorded hERG current change (%, negative = inhibition) at 10uM for this entry: O=C(CN(Cc1ccc(Cl)cc1)C(=O)CN1C(=O)COc2ccccc21)NC1CCCC1
Found: 15

Lookup: State the recorded hERG current change (%, negative = inhibition) at 10uM for this entry: COc1cc2c(cc1OC)C(c1ccc(Br)cc1)NC(=O)C2 (stereo not drawn)
Found: 12.1

Lookup: State the recorded hERG current change (%, negative = inhibition) at 10uM for this entry: CCN(CC)S(=O)(=O)c1ccc2c(c1)nc(SCC(=O)NCC1CCCO1)n2CC (stereo not drawn)
Found: 3.12

Lookup: State the recorded hERG current change (%, negative = inhibition) at 10uM for this entry: Cn1c(SCc2nc3ccccc3c(=O)[nH]2)nc2ccccc21
Found: 0.933

Lookup: State the recorded hERG current change (%, negative = inhibition) at 10uM for this entry: COc1ccc(-n2c(Cc3cccn3C)nnc2SCC(=O)Nc2ccccc2F)cc1
Found: -53.7

Lookup: State the recorded hERG current change (%, negative = inhibition) at 10uM for this entry: CN(CC(=O)Nc1c(Cl)cccc1Cl)C(=O)c1ccncc1
Found: 19.4

Lookup: State the recorded hERG current change (%, negative = inhibition) at 10uM for this entry: COc1ccc(NC(=O)/C(=C/c2cccs2)NC(=O)c2ccco2)cc1
Found: -21.1

Lookup: State the recorded hERG current change (%, negative = inhibition) at 10uM for this entry: CCCCn1c(-c2csc(CCC)c2)n[nH]c1=S
Found: 14.8

Lookup: State the recorded hERG current change (%, negative = inhibition) at 10uM for this entry: Fc1ccccc1CSc1nnc(-c2cnccn2)n1Cc1ccco1
Found: -11.2

Lookup: State the recorded hERG current change (%, negative = inhibition) at 10uM for this entry: Cc1cccc(/C(N)=N/OC(=O)Cc2cccs2)c1
Found: -12.4

Lookup: State the recorded hERG current change (%, negative = inhibition) at 10uM for this entry: COC(=O)Cn1cc(C(=O)OC)c2ccccc21
Found: -4.51

Lookup: State the recorded hERG current change (%, negative = inhibition) at 10uM for this entry: O=C(C1CCCCC1)N1CC(=O)N2CCc3ccccc3C2C1 (stereo not drawn)
Found: 10.2
